molecular target: human CB2R (Homo sapiens, UniProt P34972); construct: host or cells: CHO cells; assay: CB2R mediated modulation of cAMP synthesis; assay type: cell-based; settings: CHO cells expressing human CB2R; concentration at which 50% of the forskolin-stimulated cAMP synthesis was inhibited; 100% defined by 1 uM CP55940; read-out: CB2 EC50
Sequence (P34972 whole entry): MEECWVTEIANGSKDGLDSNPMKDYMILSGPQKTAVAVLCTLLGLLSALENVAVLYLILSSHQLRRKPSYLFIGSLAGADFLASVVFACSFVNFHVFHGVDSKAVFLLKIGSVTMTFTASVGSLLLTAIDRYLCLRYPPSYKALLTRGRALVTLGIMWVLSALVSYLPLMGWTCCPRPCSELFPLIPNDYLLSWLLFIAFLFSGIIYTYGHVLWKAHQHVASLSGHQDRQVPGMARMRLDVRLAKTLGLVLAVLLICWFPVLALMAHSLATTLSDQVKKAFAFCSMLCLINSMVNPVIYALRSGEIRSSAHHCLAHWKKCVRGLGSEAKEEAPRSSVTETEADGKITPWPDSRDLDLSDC
ASSAY ENDPOINT: pEC50
Would you please state pEC50, meaning minus log10 of the concentration in mol/L, as a bare number?

pEC50 of CC(C)(NC1CCCCC1)C(=O)Nc1ccc(C(F)(F)F)cn1 [Example 29] on human CB2R (Homo sapiens, UniProt P34972)? 6.33
